# Target Desc: T1, recombinant human IL-12 (rhIL-12) (human, UniProt P29459 23-219; P29460 23-328)
# T1 chain 1: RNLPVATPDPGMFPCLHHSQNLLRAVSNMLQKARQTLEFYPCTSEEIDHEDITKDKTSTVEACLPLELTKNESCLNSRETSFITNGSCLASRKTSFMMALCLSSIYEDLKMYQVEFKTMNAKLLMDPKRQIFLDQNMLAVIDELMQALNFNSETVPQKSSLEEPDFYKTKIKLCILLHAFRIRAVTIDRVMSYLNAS
# T1 chain 2: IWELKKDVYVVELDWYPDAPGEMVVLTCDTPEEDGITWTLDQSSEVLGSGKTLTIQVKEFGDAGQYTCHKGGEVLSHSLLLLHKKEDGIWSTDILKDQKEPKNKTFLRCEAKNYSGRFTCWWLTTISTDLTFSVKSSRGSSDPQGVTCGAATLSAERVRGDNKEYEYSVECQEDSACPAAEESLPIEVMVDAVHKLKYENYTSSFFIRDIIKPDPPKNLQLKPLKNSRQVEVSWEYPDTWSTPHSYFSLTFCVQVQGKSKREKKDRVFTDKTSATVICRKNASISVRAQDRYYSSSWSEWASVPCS
# Assay Remarks: BIAcore
koff for assorted binders
Measured Attribute: koff (s⁻¹)

INSERT INTO results (binder, measured_attribute, data_value) VALUES
  ('QSYDRITHPALL [Y61 L94 I]', 'koff', 0.000276),
  ('QSYDYGTHPALL [Y61 L93 Y]', 'koff', 0.000335),
  ('QSYDRPTHPALL [Y61 L94 P]', 'koff', 0.000332),
  ('QSYDRVTHPALL [Y61 L94 V]', 'koff', 0.000351);
